DC50 values by entry
Molecular target: BCL-XL (Homo sapiens, UniProt Q07817)
Construct: endogenous in cells; host or cells: MOLT-4
Sequence (Q07817 whole entry): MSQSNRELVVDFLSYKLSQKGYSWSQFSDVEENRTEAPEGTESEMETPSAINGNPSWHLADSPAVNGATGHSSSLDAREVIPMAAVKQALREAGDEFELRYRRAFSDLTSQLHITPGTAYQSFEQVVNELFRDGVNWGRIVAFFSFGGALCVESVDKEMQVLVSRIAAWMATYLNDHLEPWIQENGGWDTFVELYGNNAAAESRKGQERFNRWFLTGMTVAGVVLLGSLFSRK
Experiment: BCL-XL degradation assay, western blot in MOLT-4 cells, 16 h
Type: cell-based
Conditions: western blot, MOLT-4 cells, 16 h; read-out: Bcl-xL WB in MOLT-4 degradation 16 h: Mean external-Abs DC50
measuredEndpoint: DC50

{"molecule": "Cc1ncsc1-c1ccc([C@H](C)NC(=O)[C@@H]2C[C@@H](O)CN2C(=O)[C@@H](NC(=O)CCCCCCCS(=O)(=O)NC(=O)c2ccc(N3CCN(CC4=C(c5ccc(Cl)cc5)CCC(C)(C)C4)CC3)cc2)C(C)(C)C)cc1", "measuredEndpoint": "DC50", "observedValue": "> 1000 nM"}
{"molecule": "Cc1ncsc1-c1ccc([C@H](C)NC(=O)[C@@H]2C[C@@H](O)CN2C(=O)[C@@H](NC(=O)C2CCN(c3ccc(S(=O)(=O)NC(=O)c4nc(N5CCc6cccc(C(=O)Nc7nc8ccccc8s7)c6C5)ccc4-c4cnn(CC5CCCCC5)c4C)cc3)CC2)C(C)(C)C)cc1", "measuredEndpoint": "DC50", "observedValue": "< 10 nM"}
{"molecule": "Cc1ncsc1-c1ccc(CNC(=O)[C@@H]2C[C@@H](O)CN2C(=O)[C@@H](NC(=O)C2(F)CC2)C(C)(C)C)c(OCC(=O)N2CCN(CC#Cc3ccc(OCCCc4sc(N5CCc6cccc(C(=O)Nc7nc8ccccc8s7)c6C5)nc4C(=O)O)c(F)c3)CC2)c1", "measuredEndpoint": "DC50", "observedValue": "10 to 100 nM"}
{"molecule": "Cc1ncsc1-c1ccc(CNC(=O)[C@@H]2CC(O)CN2C(=O)[C@@H](NC(=O)C2(F)CC2)C(C)(C)C)c(OCCCCCCCCS(=O)(=O)NC(=O)c2nc(N3CCc4cccc(C(=O)Nc5nc6ccccc6s5)c4C3)ccc2-c2cnn(CC34CC5CC(CC(C5)C3)C4)c2C)c1 (stereo partly shown)", "measuredEndpoint": "DC50", "observedValue": "< 10 nM"}
